Target: Human FXIa (Homo sapiens, UniProt P03951)
Construct: purchased Enzyme Research Labs or Haematologic Technologies Inc
Sequence (P03951 388-625 limits assumed): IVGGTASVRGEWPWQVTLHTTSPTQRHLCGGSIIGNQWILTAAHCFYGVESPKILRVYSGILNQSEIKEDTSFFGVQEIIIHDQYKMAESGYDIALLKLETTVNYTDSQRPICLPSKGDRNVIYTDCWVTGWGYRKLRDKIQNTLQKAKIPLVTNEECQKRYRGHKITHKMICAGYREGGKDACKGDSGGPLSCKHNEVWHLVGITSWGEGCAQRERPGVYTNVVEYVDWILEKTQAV
Sequence (P03951 19-387 partner limits assumed): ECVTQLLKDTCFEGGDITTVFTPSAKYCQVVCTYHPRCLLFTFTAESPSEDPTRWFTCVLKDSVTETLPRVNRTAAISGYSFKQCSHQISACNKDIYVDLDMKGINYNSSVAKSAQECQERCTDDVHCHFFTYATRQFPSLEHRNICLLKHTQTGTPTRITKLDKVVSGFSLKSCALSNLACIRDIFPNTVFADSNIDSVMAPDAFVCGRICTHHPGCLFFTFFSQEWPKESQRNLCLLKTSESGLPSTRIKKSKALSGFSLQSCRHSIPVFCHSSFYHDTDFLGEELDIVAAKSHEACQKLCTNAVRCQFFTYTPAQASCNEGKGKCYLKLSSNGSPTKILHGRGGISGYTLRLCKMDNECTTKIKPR
Assay: FXIa enzymatic activity (chromogenic S-2366; fluorescent assay for high potency)
Format: biochemical
Conditions: Table 3; read-out: IC50 (μM) FXIa
# IC50 listing for each entry below

Cc1cc2cc(NC(=NC(=O)c3ccc(C(=O)N(C)C)nc3)N[C@H]3CCCCN(CC(=O)N4CCCC4)C3=O)ccc2o1 [Compound 16B]    > 33 µM
CC(C)(C)NC(=O)N1CCN(C(=O)N2C(=O)[C@H](CCCNC(=N)N)[C@H]2C(=O)O)CC1 [Example 4]    0.0028 µM

# context switch: different compound, same IC50
**Query** Give IC50 only, for CS(=O)(=O)N[C@H](Cc1ccccc1)C(=O)N1CCC[C@H]1C(=O)NCC1CCN(C(=N)N)CC1 [Compound 16A] , using Human FXIa (Homo sapiens, UniProt P03951) data.
**Result** 6.86 µM

====

Here the recorded IC50 is given for each entry.
Biological target: Recombinant tissue plasminogen activator (Homo sapiens, UniProt P00750)
Construct: purchased Genentech
Sequence (P00750 36-562): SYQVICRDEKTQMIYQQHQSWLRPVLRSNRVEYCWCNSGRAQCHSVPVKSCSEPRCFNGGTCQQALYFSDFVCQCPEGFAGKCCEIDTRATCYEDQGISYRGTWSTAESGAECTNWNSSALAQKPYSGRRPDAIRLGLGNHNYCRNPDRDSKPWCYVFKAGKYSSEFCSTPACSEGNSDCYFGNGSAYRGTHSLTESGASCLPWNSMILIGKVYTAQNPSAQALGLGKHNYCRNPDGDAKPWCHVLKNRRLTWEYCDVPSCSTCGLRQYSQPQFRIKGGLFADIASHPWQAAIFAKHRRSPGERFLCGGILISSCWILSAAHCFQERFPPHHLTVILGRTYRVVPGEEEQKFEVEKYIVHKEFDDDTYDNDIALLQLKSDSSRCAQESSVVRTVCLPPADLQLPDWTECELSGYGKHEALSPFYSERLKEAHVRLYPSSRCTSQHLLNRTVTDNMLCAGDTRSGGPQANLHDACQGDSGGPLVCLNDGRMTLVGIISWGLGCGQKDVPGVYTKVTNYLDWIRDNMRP
Assay: Selectivity assay tissue plasminogen activator
Format: biochemical
Conditions: Table 3
Please state the figure in µM; there is no need to write the unit.

Cc1cc2cc(NC(=NC(=O)c3ccc(C(=O)N(C)C)nc3)N[C@H]3CCCCN(CC(=O)N4CCCC4)C3=O)ccc2o1 [Compound 16B]    1.44

**Query** Tell us which IC50 value is on record for CS(=O)(=O)N[C@H](Cc1ccccc1)C(=O)N1CCC[C@H]1C(=O)NCC1CCN(C(=N)N)CC1 [Compound 16A]
**Result** 95

Values from patent US20040180855A1
